Molecular target: SIRT1 (Homo sapiens, UniProt Q96EB6)
Sequence (Q96EB6 whole entry): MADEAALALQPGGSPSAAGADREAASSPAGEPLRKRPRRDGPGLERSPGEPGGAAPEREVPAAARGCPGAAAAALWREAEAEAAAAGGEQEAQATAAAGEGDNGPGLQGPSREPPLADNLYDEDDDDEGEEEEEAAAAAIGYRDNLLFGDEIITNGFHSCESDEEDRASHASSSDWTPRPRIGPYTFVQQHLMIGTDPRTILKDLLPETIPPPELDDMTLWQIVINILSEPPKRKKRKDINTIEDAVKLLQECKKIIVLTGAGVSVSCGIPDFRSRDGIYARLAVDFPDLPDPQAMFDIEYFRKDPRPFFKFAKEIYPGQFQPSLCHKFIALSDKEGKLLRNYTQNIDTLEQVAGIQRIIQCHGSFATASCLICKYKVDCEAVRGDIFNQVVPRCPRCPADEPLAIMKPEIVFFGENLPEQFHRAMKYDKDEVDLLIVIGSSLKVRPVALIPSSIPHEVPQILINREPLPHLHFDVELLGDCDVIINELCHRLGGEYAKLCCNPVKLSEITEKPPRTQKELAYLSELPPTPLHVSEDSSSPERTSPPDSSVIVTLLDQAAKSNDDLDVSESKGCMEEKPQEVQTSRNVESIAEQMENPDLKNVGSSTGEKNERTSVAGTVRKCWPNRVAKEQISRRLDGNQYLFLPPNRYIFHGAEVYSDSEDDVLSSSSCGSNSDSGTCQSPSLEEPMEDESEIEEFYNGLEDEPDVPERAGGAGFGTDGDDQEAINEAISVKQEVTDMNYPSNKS
Experiment: TAMRA based mass spectrometry assay of SIRT1 activity
Assay type: biochemical
Details: percent maximum fold activation of SIRT1; TAMRA peptide substrate; read-out: TAMRA % Fold Act
QUANTITY_KIND: Emax

Query: Consider the molecule O=C(Nc1cccc(N2CCCC2)n1)c1nnc2ccc(-c3ccccc3C(F)(F)F)nn12 [Compound 66] and give its recorded Emax.
Reply: ≥ 350%

Query: Annotate the molecule O=C(Nc1cccc(N2CCOCC2)n1)c1cnc2ccc(-c3cccc(F)c3Cl)nn12 [Compound 178] with its measured Emax.
Reply: < 350%

Query: Please look at this molecule and report its Emax: O=C(Nc1ccnc(N2CCCC2)c1)c1cnc2ccc(-c3cncc(C(F)F)c3)nn12 [Compound 61]
Reply: < 350%

Query: Supply recorded Emax for CS(=O)(=O)c1ccccc1-c1ccc2ncc(C(=O)Nc3cccc(N4CCOCC4)n3)n2n1 [Compound 185] here.
Reply: < 350%

Query: Provide measured Emax value, entry: O=C(Nc1ccncc1)c1cnc2ccc(-c3c(F)cccc3Cl)nn12 [Compound 161]
Reply: < 350%

Query: Give the reported value of Emax for this record: O=C(Nc1ccncc1)c1cnc2ccc(-c3ccccc3C(F)(F)F)nn12 [Compound 77]
Reply: ≥ 350%

Query: Retrieve Emax measured for Cc1cnc(NC(=O)c2cnc3ccc(-c4cccc(C(F)(F)F)c4)nn23)s1 [Compound 17] and print it.
Reply: < 350%

Query: Name the recorded Emax of the item O=C(Nc1cccc(N2CCOCC2)n1)c1cnc2ccc(-c3ccccc3Cl)nn12 [Compound 95] in your answer.
Reply: ≥ 350%

Query: Give reported Emax value for O=C(Nc1cccc(N2CCC2)n1)c1nnc2ccc(-c3ccccc3C(F)(F)F)nn12 [Compound 73]
Reply: < 350%

Query: Return Emax (reported value) for this molecule: Cc1ncccc1-c1ccc2ncc(C(=O)Nc3ccnc(N4CCCC4)c3)n2n1 [Compound 59]
Reply: < 350%

Query: Quote Emax reported for O=C(Nc1cccnc1)c1cnc2ccc(-c3ccccc3C(F)(F)F)nn12 [Compound 108] please.
Reply: < 350%

Query: Check the records and state Emax for COCCn1cc(NC(=O)c2cnc3ccc(-c4ccccc4C(F)(F)F)nn23)ccc1=O [Compound 156]
Reply: < 350%

Query: Identify measured Emax associated with O=C(Nc1ccccn1)c1cnc2ccc(-c3cccc(F)c3Cl)nn12 [Compound 182]
Reply: < 350%

Query: Give Emax for O=C(Nc1ccccn1)c1cnc2ccc(-c3ccccc3C(F)F)nn12 [Compound 32]
Reply: < 350%

Query: Read off the recorded Emax for O=C(Nc1cccc(CN2CCOCC2)n1)c1cnc2ccc(-c3ccccc3C(F)F)nn12 [Compound 34]
Reply: ≥ 350%

Query: Input O=C(Nc1cccc(CN2CCOCC2)n1)c1cnc2ccc(-c3cccc(Cl)c3F)nn12 [Compound 140] , output reported Emax.
Reply: ≥ 350%

Query: Look up Emax of O=C(Nc1nc(CN2CCOCC2)cs1)c1cnc2ccc(-c3cccc(Cl)c3)nn12 [Compound 27] and report it.
Reply: ≥ 350%
